Reference source: ChEMBL document CHEMBL1201862

Measured GI50, listed per entry.
System: BT-549
Test: NCI tumour cell line growth inhibition, 48 h
The source made the active and inactive calls. No stated cut-off is given here; in the data, active = GI50 up to about 1.1 µM and inactive = higher.
reported-endpoint: GI50

- Oc1ccc2c(c1)CCc1c-2n(CCN2CCOCC2)c2ccc(O)cc12: 31.3 µM (inactive)
- CN1CCCC2C(c3ccccc3)C(C3=NCCCC3)C(c3ccccc3)CC21 (stereo not given): 33.3 µM (inactive)
- Cc1ccc2c(c1)C(=C(C#N)C#N)CCCS2(=O)=O: > 100 µM (inactive)
- NC(Cc1ccc(O)cn1)C(=O)NC(C(=O)O)c1ccccc1 (stereo not given): > 100 µM (inactive)
- C[C@]12Cc3cnc(-c4ccccc4)nc3C[C@@H]1CC[C@@H]1[C@@H]2CC[C@@]2(C)[C@H]1CC[C@]2(C)O: 23 µM (inactive)
- CC1OC(O[C@H]2CC[C@]3(C)[C@H]4CC=C5[C@@H]6[C@@H](C)[C@H](C)CC[C@]6(C(=O)OC6OC(CO)C(O)C(O)C6O)CC[C@@]5(C(=O)O)[C@]4(C)CC[C@H]3C2(C)C)C(O)C(O)C1O (stereo not given in full): > 100 µM (inactive)
- CCCCCCc1nn2c(-c3ccncc3)nnc2s1: > 10 µM (inactive)
- COC(=O)C1(Cc2ccccc2)Cc2cc3c(cc2C1)CCC3: 35 µM (inactive)
- O=C(O)C(Cc1ccc(O)cn1)NC(=O)C(F)(F)F (stereo not given): > 100 µM (inactive)
- Nc1cc2[nH]c(=O)c3cc(Cl)ccc3c2cc1Cl: > 100 µM (inactive)
- Clc1cc2c(cc1Cl)CC(NCCN1CCCC1)CC2 (stereo not given): 15 µM (inactive)
- CCCN(CCCc1ccccc1)CCc1ccc2[nH]c(=S)[nH]c2c1: 68.9 µM (inactive)
- Cc1c2cccc-2ccc2c3ccccc3n(C(=O)c3ccc(Cl)cc3)c12: > 100 µM (inactive)
- COc1cc2nc3c(=C(C#N)C#N)c4ccccc4n3c(=O)c2cc1OC: > 100 µM (inactive)
- N#C/C=c1/c2ccccc2n2nc3ccccc3c12: > 100 µM (inactive)
- CC(Cc1ccc(O)c(O)c1)C(C)Cc1ccc(O)c(O)c1 (stereo not given) [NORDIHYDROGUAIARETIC ACID]: 13.9 µM (inactive)
- O=C(C/N=C(\CN(c1ccccc1)c1ccccc1)Oc1c(Cl)cc(Cl)cc1Cl)n1cnc2ccccc21: 22.6 µM (inactive)
- COc1ccc2c(c1)CC[C@@H]1[C@@H]2CC[C@]2(C)C(=O)/C(=C/c3ccc(N(C)C)cc3)C[C@@H]12: 29.1 µM (inactive)
- CCCN(C(=O)c1ccccc1)C(C#N)c1ccc(C(C#N)N(CCC)C(=O)c2ccccc2)cc1 (stereo not given): 48.4 µM (inactive)
- O=C(CC(=O)Nc1ccccc1)N/N=C/c1cc(/N=N/c2ccc(Br)cc2)ccc1O: > 10 µM (inactive)

###

Listed here: items and their measured GI50.
System: RPMI-8226
Test: NCI tumour cell line growth inhibition, 48 h
Active and inactive are the calls of the source. Cut-off read from the data, not from the text of the source: active = GI50 up to about 1.1 µM and inactive = higher.
reported-endpoint: GI50

- NS(=O)(=O)c1ccc(/N=N/c2ccc(O)c(O)c2)cc1: 10.7 µM (inactive)
- Nc1cc(S(=O)(=O)O)cc2cc(S(=O)(=O)O)c(/N=N/c3ccc(-c4ccc(/N=N/c5c(S(=O)(=O)O)cc6cc(S(=O)(=O)O)cc(N)c6c5O)cc4)cc3)c(O)c12: > 100 µM (inactive)
- Cc1cc2c(cc1Cl)SC(NS(=O)(=O)c1ccc(Cl)cc1)=NS2(=O)=O: 57 µM (inactive)
- Nc1ncc2c(n1)-c1ccccc1OC2N1CCOCC1 (stereo unspecified): > 100 µM (inactive)
- O=S(=O)(O)CCCC1S(=O)(=O)OCCOS1(=O)=O: > 100 µM (inactive)
- CCN1C(=O)C(=Cc2ccc(-c3ccccc3)cc2)C(=O)N(CC)C1=S: > 100 µM (inactive)
- CC(CCC(=O)O)C(=O)O (stereo unspecified): > 100 µM (inactive)
- NC(=O)N1N=C2c3ccccc3SC[C@H]2[C@@H]1c1ccccc1: 33.4 µM (inactive)
- OC1COC2CC(Nc3ccccn3)OC12 (stereo unspecified): > 100 µM (inactive)
- COc1ccc(-c2cc(O)c3nc4ccccc4n3c2)cc1: > 100 µM (inactive)
- COC(=O)c1ccc(/C=C2\N=C(C)OC2=O)cc1: > 100 µM (inactive)
- OC[C@H]1N[C@H](CO)[C@@H](O)[C@H]1O: > 100 µM (inactive)
- Cc1ccccc1NC(=O)CC(=O)n1nc(-c2ccccc2)c(/N=N/c2ccc([N+](=O)[O-])cc2)c1-c1ccccc1: 19.2 µM (inactive)
- NCCNCCCNC(=O)c1cc(-c2ccccc2)nc2ccccc12: 54 µM (inactive)
- CS/C(C)=N/OC(=O)NCCCCNc1ccc(N=[N+]=[N-])cc1: 18.4 µM (inactive)
- CC1(C)[C@@H]2C[C@H]1C(Cc1ccccc1C[C@H]1c3cc(-c4ccccn4)ncc3[C@H]3C[C@@H]1C3(C)C)c1cc(-c3ccccn3)ncc12 (stereo partly specified): 0.348 µM (active)
- N#CC1C(=O)NC23CCCCC2C1c1ccccc1O3 (stereo unspecified): > 100 µM (inactive)
- CNc1ccccc1-c1nc2ccccc2c(=O)o1: > 100 µM (inactive)
- COc1ccc(/C=C2\CC3C4CC=C5C[C@@H](O)CC[C@]5(C)C4CC[C@]3(C)\C2=N\O)cc1OC (stereo partly specified): 7.24 µM (inactive)
- C=CCCc1cc(OC)ccc1CN(C)C(C)(C)CO: > 100 µM (inactive)
- O=C1C[C@@H]2CCCC[C@@H]2C12SCCS2: > 100 µM (inactive)
- CC(C)(C)C(=O)C(CC(=O)c1ccccc1)C(=O)C(C)(C)C: > 100 µM (inactive)
- Cc1c2cccc-2ccc2c3ccccc3n(C(=O)c3ccc(Cl)cc3)c12: 45.1 µM (inactive)
- CCN(CC)CCNC(=O)c1cccc2nc3ccccc3nc12: 7.64 µM (inactive)
- Cc1cc2ccccc2n2c1nc1ccc(O)cc12: > 10 µM (inactive)
- CC1=NN(C(=O)CC(=O)Nc2cccc(C)c2)C(=O)C1/N=N\c1ccc(S(=O)(=O)c2ccc(/N=N/C3C(=O)N(C(=O)CC(=O)Nc4cccc(C)c4)N=C3C)cc2)cc1 (stereo unspecified): > 100 µM (inactive)
- C1CSCCCSCCCSCCCSCCCSC1: 5.32 µM (inactive)
- NC1=NC(Cn2nc(-c3ccccc3)c3ccccc3c2=O)=NNC(=O)N1: > 100 µM (inactive)
- Cc1[nH]nc2c1C(=O)C=C(N(CCO)c1ccccc1)C2=O: > 100 µM (inactive)
- CC(C)=Cc1cc(C(=O)NCCNC(=O)c2cc(C=C(C)C)nc(NC#N)n2)nc(NC#N)n1: > 100 µM (inactive)
- CN(C)CCCn1nc(N)c2nc3cc(Cl)ccc3nc21: 60.3 µM (inactive)
- C=C1CC(Cn2ccc(=O)[nH]c2=O)(c2ccc(OC)cc2)OC1=O (stereo unspecified): 2.88 µM (inactive)
- O=C(CC(=O)Nc1ccccc1)N/N=C/c1cc(/N=N/c2ccc(Br)cc2)ccc1O: 3.68 µM (inactive)
- N#C/C=c1/c2ccccc2n2nc3ccccc3c12: 7.36 µM (inactive)
- CCOC(=O)c1ccc(Nc2c3c(nc4ccccc24)CCCC3)cc1: > 100 µM (inactive)
- COc1cc2nc(-c3ccccc3)cc(O)c2c(OC)c1OC: > 100 µM (inactive)
- O=C1Nc2ccccc2/C1=C\c1c(-c2ccccc2)nc2n1CCS2: 22.6 µM (inactive)
- O=C1C=Cc2ncccc2C1=O: 24.1 µM (inactive)
- N#Cc1cccc(N2C(=O)c3c(c(-c4ccccc4)c(-c4ccc(Sc5ccc(-c6c(-c7ccccc7)c7c(c(-c8ccccc8)c6-c6ccccc6)C(=O)N(c6cccc(C#N)c6)C7=O)cc5)cc4)c(-c4ccccc4)c3-c3ccccc3)C2=O)c1: > 100 µM (inactive)
- Cc1ccc(N2C[N+](c3ccccc3)=NC(c3ccccc3)=N2)cc1: 33 µM (inactive)
- O=C(c1ccccc1)c1ccc(COc2ccc(C(c3c(O)c4ccccc4oc3=O)c3c(O)c4ccccc4oc3=O)cc2)cc1: 12.5 µM (inactive)
